The measurements presented in this section are drawn from patent US20090053213A1.

Target: human GM-CSF (human, UniProt P04141 18-144)
Sequence (P04141 18-144): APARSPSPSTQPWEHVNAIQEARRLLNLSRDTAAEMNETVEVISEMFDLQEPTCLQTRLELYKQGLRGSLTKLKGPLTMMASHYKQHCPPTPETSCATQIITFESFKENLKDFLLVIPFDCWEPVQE
Assay: cell-based or functional assay
test_readout: IC50 (pM) in TF-1 proliferation assay, human GM-CSF
Quick reminder: number only, in pM, skip the unit.

Solved cases below.
MOR04297 Fab (Fab, V domains shown, Fab with FLAG and 6xHis tags) VH: QVQLVQSGAEVKKPGSSVKVSCKASGGTFNSFLISWVRQAPGQGLEWMGGIIPIFGTANYAQKFQGRVTITADESTSTAYMELSSLRSEDTAVYYCARKFISDSWGQGTLVTVSS VL: DIQMTQSPSSLSASVGDRVTITCRASQTINNYLNWYQQKPGKAPKLLIYTASNLQSGVPSRFSGSGSGTDFTLTISSLQPEDFATYYCQQYSWVPHTFGQGTKVEIKR = 14000
MOR04342 Fab (Fab, V domains shown, X-cloned Fab (VH of MOR04283 x VL of MOR04297) with FLAG and 6xHis tags) VH: QVQLVQSGAEVKKPGSSVKVSCKASGGTFNSFLISWVRQAPGQGLEWMGAISPWDGVTGYAQKFQGRVTITADESTSTAYMELSSLRSEDTAVYYCARKFISDSWGQGTLVTVSS VL: DIQMTQSPSSLSASVGDRVTITCRASQTINNYLNWYQQKPGKAPKLLIYTASNLQSGVPSRFSGSGSGTDFTLTISSLQPEDFATYYCQQYSWVPHTFGQGTKVEIKR = 80

# evaluate next
The measured IC50 (pM) in TF-1 proliferation assay, human GM-CSF associated with MOR04283 Fab (Fab, V domains shown, Fab with FLAG and 6xHis tags) VH: QVQLVQSGAEVKKPGSSVKVSCKASGGTFNSFLISWVRQAPGQGLEWMGAISPWDGVTGYAQKFQGRVTITADESTSTAYMELSSLRSEDTAVYYCARKFISDSWGQGTLVTVSS VL: DIQMTQSPSSLSASVGDRVTITCRASQTINNYLNWYQQKPGKAPKLLIYTASNLQSGVPSRFSGSGSGTDFTLTISSLQPEDFAVYYCQQYSGSPMTFGQGTKVEIKR reads 17300
